- Test system: Escherichia coli TOP10;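 note: peptides expressed intracellularly from a pBAD plasmid library in pooled LB shake-flask culture, induced with 0.3% L-arabinose, DNA abundance read by NGS, three biological replicates, DESeq2 with apeglm shrinkage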
- PROTOCOL: shrunken log2 fold change of peptide-encoding DNA abundance (4.5 h post-induction vs induction); higher = less antimicrobial activity (less host growth inhibition)
- CONDITION_CONTEXT: time post-induction: 4.5 h; library: site-saturation at positions 5, 18, 19, 20
Parameter threshold = 0.05. Response is true (1) when shrunken log2 fold change meets or exceeds it, else false (0).

Prompt: Please check the record RRIRVRPPRLPRPRPRPSTGPRP and state if its shrunken log2 fold change is at or above 0.05.
Completion: false (0)

Prompt: Please check the record RRIRGRPPRLPRPRPRPETWPRP and state if its shrunken log2 fold change is at or above 0.05.
Completion: true (1)

Prompt: Please check the record RRIRDRPPRLPRPRPRPQPSPRP and state if its shrunken log2 fold change is at or above 0.05.
Completion: true (1)

Prompt: Please check the record RRIRIRPPRLPRPRPRPGCNPRP and state if its shrunken log2 fold change is at or above 0.05.
Completion: false (0)

Prompt: Please check the record RRIRFRPPRLPRPRPRPVAEPRP and state if its shrunken log2 fold change is at or above 0.05.
Completion: true (1)

Prompt: Please check the record RRIRIRPPRLPRPRPRPTSPPRP and state if its shrunken log2 fold change is at or above 0.05.
Completion: true (1)

Prompt: Please check the record RRIRWRPPRLPRPRPRPHMMPRP and state if its shrunken log2 fold change is at or above 0.05.
Completion: false (0)

Prompt: Please check the record RRIRCRPPRLPRPRPRPENRPRP and state if its shrunken log2 fold change is at or above 0.05.
Completion: false (0)

Prompt: Please check the record RRIRNRPPRLPRPRPRPPICPRP and state if its shrunken log2 fold change is at or above 0.05.
Completion: false (0)

Prompt: Please check the record RRIRMRPPRLPRPRPRPWEDPRP and state if its shrunken log2 fold change is at or above 0.05.
Completion: false (0)

Prompt: Please check the record RRIRMRPPRLPRPRPRPRASPRP and state if its shrunken log2 fold change is at or above 0.05.
Completion: true (1)

Prompt: Please check the record RRIRARPPRLPRPRPRPKANPRP and state if its shrunken log2 fold change is at or above 0.05.
Completion: true (1)

Prompt: Please check the record RRIRQRPPRLPRPRPRPCVVPRP and state if its shrunken log2 fold change is at or above 0.05.
Completion: true (1)

Prompt: Please check the record RRIRGRPPRLPRPRPRPCMSPRP and state if its shrunken log2 fold change is at or above 0.05.
Completion: true (1)

Prompt: Please check the record RRIRFRPPRLPRPRPRPELCPRP and state if its shrunken log2 fold change is at or above 0.05.
Completion: true (1)

Prompt: Please check the record RRIRVRPPRLPRPRPRPLKYPRP and state if its shrunken log2 fold change is at or above 0.05.
Completion: false (0)

Prompt: Please check the record RRIRHRPPRLPRPRPRPAVKPRP and state if its shrunken log2 fold change is at or above 0.05.
Completion: false (0)

Prompt: Please check the record RRIRDRPPRLPRPRPRPCYLPRP and state if its shrunken log2 fold change is at or above 0.05.
Completion: false (0)

Prompt: Please check the record RRIRPRPPRLPRPRPRPAGTPRP and state if its shrunken log2 fold change is at or above 0.05.
Completion: false (0)

Prompt: Please check the record RRIRFRPPRLPRPRPRPCFGPRP and state if its shrunken log2 fold change is at or above 0.05.
Completion: false (0)

Prompt: Please check the record RRIRYRPPRLPRPRPRPWHHPRP and state if its shrunken log2 fold change is at or above 0.05.
Completion: false (0)

Prompt: Please check the record RRIRFRPPRLPRPRPRPPNRPRP and state if its shrunken log2 fold change is at or above 0.05.
Completion: true (1)

Prompt: Please check the record RRIRKRPPRLPRPRPRPLLSPRP and state if its shrunken log2 fold change is at or above 0.05.
Completion: true (1)

Prompt: Please check the record RRIRFRPPRLPRPRPRPMPEPRP and state if its shrunken log2 fold change is at or above 0.05.
Completion: false (0)

Prompt: Please check the record RRIRYRPPRLPRPRPRPVVVPRP and state if its shrunken log2 fold change is at or above 0.05.
Completion: false (0)

Prompt: Please check the record RRIRGRPPRLPRPRPRPVGDPRP and state if its shrunken log2 fold change is at or above 0.05.
Completion: true (1)

Prompt: Please check the record RRIRIRPPRLPRPRPRPHTAPRP and state if its shrunken log2 fold change is at or above 0.05.
Completion: true (1)

Prompt: Please check the record RRIRYRPPRLPRPRPRPSPHPRP and state if its shrunken log2 fold change is at or above 0.05.
Completion: false (0)

Prompt: Please check the record RRIRQRPPRLPRPRPRPCAEPRP and state if its shrunken log2 fold change is at or above 0.05.
Completion: false (0)

Prompt: Please check the record RRIRARPPRLPRPRPRPFHWPRP and state if its shrunken log2 fold change is at or above 0.05.
Completion: true (1)

Prompt: Please check the record RRIRYRPPRLPRPRPRPPSIPRP and state if its shrunken log2 fold change is at or above 0.05.
Completion: false (0)

Prompt: Please check the record RRIRCRPPRLPRPRPRPCNNPRP and state if its shrunken log2 fold change is at or above 0.05.
Completion: false (0)

Prompt: Please check the record RRIRTRPPRLPRPRPRPQFNPRP and state if its shrunken log2 fold change is at or above 0.05.
Completion: false (0)

Prompt: Please check the record RRIRERPPRLPRPRPRPPKGPRP and state if its shrunken log2 fold change is at or above 0.05.
Completion: false (0)

Prompt: Please check the record RRIRHRPPRLPRPRPRPGGEPRP and state if its shrunken log2 fold change is at or above 0.05.
Completion: true (1)

Prompt: Please check the record RRIRKRPPRLPRPRPRPKANPRP and state if its shrunken log2 fold change is at or above 0.05.
Completion: true (1)

Prompt: Please check the record RRIRCRPPRLPRPRPRPVVQPRP and state if its shrunken log2 fold change is at or above 0.05.
Completion: false (0)

Prompt: Please check the record RRIRHRPPRLPRPRPRPASIPRP and state if its shrunken log2 fold change is at or above 0.05.
Completion: false (0)

Prompt: Please check the record RRIRPRPPRLPRPRPRPTCHPRP and state if its shrunken log2 fold change is at or above 0.05.
Completion: true (1)

Prompt: Please check the record RRIRHRPPRLPRPRPRPICEPRP and state if its shrunken log2 fold change is at or above 0.05.
Completion: false (0)

Prompt: Please check the record RRIRRRPPRLPRPRPRPKWKPRP and state if its shrunken log2 fold change is at or above 0.05.
Completion: false (0)

Prompt: Please check the record RRIRQRPPRLPRPRPRPGNGPRP and state if its shrunken log2 fold change is at or above 0.05.
Completion: false (0)

Prompt: Please check the record RRIRLRPPRLPRPRPRPMGRPRP and state if its shrunken log2 fold change is at or above 0.05.
Completion: true (1)

Prompt: Please check the record RRIRPRPPRLPRPRPRPVVKPRP and state if its shrunken log2 fold change is at or above 0.05.
Completion: false (0)

Prompt: Please check the record RRIRNRPPRLPRPRPRPVMMPRP and state if its shrunken log2 fold change is at or above 0.05.
Completion: false (0)

Prompt: Please check the record RRIRDRPPRLPRPRPRPSWYPRP and state if its shrunken log2 fold change is at or above 0.05.
Completion: false (0)

Prompt: Please check the record RRIRRRPPRLPRPRPRPNTDPRP and state if its shrunken log2 fold change is at or above 0.05.
Completion: false (0)

Prompt: Please check the record RRIRKRPPRLPRPRPRPILMPRP and state if its shrunken log2 fold change is at or above 0.05.
Completion: false (0)

Prompt: Please check the record RRIRMRPPRLPRPRPRPHATPRP and state if its shrunken log2 fold change is at or above 0.05.
Completion: true (1)

Prompt: Please check the record RRIRMRPPRLPRPRPRPFINPRP and state if its shrunken log2 fold change is at or above 0.05.
Completion: false (0)

Prompt: Please check the record RRIRKRPPRLPRPRPRPIAFPRP and state if its shrunken log2 fold change is at or above 0.05.
Completion: false (0)

Prompt: Please check the record RRIRKRPPRLPRPRPRPDHSPRP and state if its shrunken log2 fold change is at or above 0.05.
Completion: false (0)
